Would you mind telling me the reported recombinant UMI read abundance (log10) of each entry?
# assayDetails: recombinant UMI read abundance after kanamycin selection (control-corrected) (log10(CPM+1)); higher = more efficient recombination; extreme values may be limits of the assay; sequences stand for … in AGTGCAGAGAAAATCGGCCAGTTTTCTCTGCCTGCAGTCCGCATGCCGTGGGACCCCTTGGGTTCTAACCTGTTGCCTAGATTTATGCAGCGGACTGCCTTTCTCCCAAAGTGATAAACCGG…AGGTTGGTTTCACT; site = the 11-nt donor

| sequenceString | assayValue |
| --- | --- |
| AGCCCAGCATGGACCGGTTTTCCCGGTAATCCGTATTTGGG (site AGCGCAGCTCC) | 0.0133 |

Hey, quick one: what's recombinant UMI read abundance (log10) for each of these?
1. AGCTACGCATGGACCGGTTTTCCCGGTAATCCGTATTTGAA (site AGCTACGCTTT)
2. TGTTCCCCATGGACCGGTTTTCCCGGTAATCCGTATTTGTA (site AGTTCCCCTTA)
3. GGGGCACCATGGACCGGTTTTCCCGGTAATCCGTATTTGCA (site GGCGCACCTTG)
4. TCTGGGTCATGGACCGGTTTTCCCGGTAATCCGTATTTGTT (site TCTGGGTCTAA)
5. GATTCTCCATGGACCGGTTTTCCCGGTAATCCGTATTTGCT (site GATTTTCCTAG)
6. GAATCGTCATGGACCGGTTTTCCCGGTAATCCGTATTTGCA (site GAATCGTCTTG)
7. GCAGTCGCATGGACCGGTTTTCCCGGTAATCCGTATTTGCG (site GAAGTCGCTCG)

Found:
1. 1.7
2. 0.355
3. 0
4. 0.167
5. 0
6. 2.71
7. 0.00976

Lookup: Tell me its recombinant UMI read abundance (log10) given AGCTAAGCATGGACCGGTTTTCCCGGTAATCCGTATTTGGG (site AGCTCAGCTCC) as the entry.
Found: 0.0056

----------
# assayDetails: recombinant barcode read abundance after kanamycin selection (control-corrected) (log10(CPM+1)); higher = more efficient recombination; sequences stand for … in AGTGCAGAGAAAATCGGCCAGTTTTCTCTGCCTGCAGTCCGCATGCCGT…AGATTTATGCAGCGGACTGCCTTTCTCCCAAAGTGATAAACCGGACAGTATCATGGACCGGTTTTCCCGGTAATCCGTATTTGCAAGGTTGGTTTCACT; site = the 11-nt target
Would you mind telling me the reported recombinant barcode read abundance (log10) of each entry?
Give bare numbers.

| sequenceString | assayValue |
| --- | --- |
| CAGACTTCTTGGGTTCTAACCTGTTGCCT (site CAGACTTCTAG) | 0.473 |
| CTACGACCTTGGGTTCTAACCTGTTGCGG (site TACAAGTCTAG) | 0.164 |
| CTAACTGCTTGGGTTCTAACCTGTTGCGG (site CTAACTGCTCC) | 0.633 |

Hey, quick one: what's recombinant barcode read abundance (log10) for each of these?
1. TCATATACTTGGGTTCTAACCTGTTGCCT (site ACATTTACTAG)
2. TAGTGAGCTTGGGTTCTAACCTGTTGCCG (site GCCCATCCTTA)

Found:
[0.238, 0.065]

----------
# assayDetails: recombinant UMI read abundance after kanamycin selection (control-corrected) (log10(CPM+1)); higher = more efficient recombination; extreme values may be limits of the assay; sequences stand for … in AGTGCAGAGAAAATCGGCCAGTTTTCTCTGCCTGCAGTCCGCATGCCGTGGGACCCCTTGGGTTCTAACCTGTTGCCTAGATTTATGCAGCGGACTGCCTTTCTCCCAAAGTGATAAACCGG…AGGTTGGTTTCACT; site = the 11-nt donor
reportedProperty: recombinant UMI read abundance (log10)

Hey, quick one: what's recombinant UMI read abundance (log10) for each of these?
1. CTGCTACCATGGACCGGTTTTCCCGGTAATCCGTATTTGCT (site CTGCTACCTGG)
2. TCCTAGCCATGGACCGGTTTTCCCGGTAATCCGTATTTGCC (site ACCTAGCCTGG)
3. TCCAATTCATGGACCGGTTTTCCCGGTAATCCGTATTTGCC (site TCCAATACTGG)
4. GCTTCCCCATGGACCGGTTTTCCCGGTAATCCGTATTTGAT (site GCTTTCCCTAT)
5. TAGCCTTCATGGACCGGTTTTCCCGGTAATCCGTATTTGGT (site AAGCCTTCTAC)
6. GTGCATGCATGGACCGGTTTTCCCGGTAATCCGTATTTGGT (site GTGAATGCTAC)

Found:
1. 0
2. 0
3. 0
4. 0.028
5. 0.00534
6. 0

Hey, quick one: what's recombinant UMI read abundance (log10) for each of these?
1. GTATGCACATGGACCGGTTTTCCCGGTAATCCGTATTTGCA (site GTATGCACTTA)
2. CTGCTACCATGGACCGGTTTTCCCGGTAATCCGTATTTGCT (site CAGCTACCTAG)
3. AATCAATCATGGACCGGTTTTCCCGGTAATCCGTATTTGCC (site AATCAATCTGG)
4. TGCTAGGCATGGACCGGTTTTCCCGGTAATCCGTATTTGGT (site TGCTTGGCTAC)

Found:
1. 0.546
2. 0
3. 1.98
4. 0.0132

Hey, quick one: what's recombinant UMI read abundance (log10) for each of these?
1. TGTGCGGCATGGACCGGTTTTCCCGGTAATCCGTATTTGCT (site TGTGCGGCTAG)
2. CCTATTACATGGACCGGTTTTCCCGGTAATCCGTATTTGGC (site CCTACTACTGC)
3. GCGAAAACATGGACCGGTTTTCCCGGTAATCCGTATTTGGT (site GCGAAAACTAT)
4. GGTGCGTCATGGACCGGTTTTCCCGGTAATCCGTATTTGTT (site GGTCCGTCTAA)
5. CCCCACACATGGACCGGTTTTCCCGGTAATCCGTATTTGCA (site CCCCACACTTC)
6. TCCCCAACATGGACCGGTTTTCCCGGTAATCCGTATTTGCT (site TCCCCAACTAG)
7. AGGTAGCCATGGACCGGTTTTCCCGGTAATCCGTATTTGCA (site AGGAAGACTTG)
8. AACCATCCATGGACCGGTTTTCCCGGTAATCCGTATTTGAT (site AACCTTCCTAT)

Found:
[0.57, 0, 0, 0.0208, 0.0185, 0.417, 0, 0.431]

Numbers sourced from the supplement of paper PMC11208160.
